B1: glmS ribozyme (parent)
chain: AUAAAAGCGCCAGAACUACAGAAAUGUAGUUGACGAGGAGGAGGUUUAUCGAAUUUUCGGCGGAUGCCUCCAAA

# Variants of: B1
# experimentalProtocol: self-cleavage kobs at 10000 uM GlcN6P; higher = faster cleavage; RNA array
# assayConditions: with glucosamine-6-phosphate
Fewer inactive variants are shown than the library holds.
readoutType: self-cleavage kobs at 10000 uM GlcN6P (s⁻¹)
Report the figure in s⁻¹ without appending any unit label.

variantKey: A15C U54C
measuredValue: 0.00556
--
variantKey: A14G A52C
measuredValue: 3.23e-05
--
variantKey: A15C A42G U47G A53G
measuredValue: 0.000696
--
variantKey: G13U A64G
measuredValue: 0.000847
--
variantKey: U31A A64C
measuredValue: 4.57e-05

Switching to the query record.
What the record says about C16A C34G C68G : self-cleavage kobs at 10000 uM GlcN6P is 4.24e-05

Origin of measurements: the supplement of paper PMC7125110
